target: CSF1R phosphorylation in THP-1 cells (Homo sapiens (Human))
Sequence (P07333 20-972): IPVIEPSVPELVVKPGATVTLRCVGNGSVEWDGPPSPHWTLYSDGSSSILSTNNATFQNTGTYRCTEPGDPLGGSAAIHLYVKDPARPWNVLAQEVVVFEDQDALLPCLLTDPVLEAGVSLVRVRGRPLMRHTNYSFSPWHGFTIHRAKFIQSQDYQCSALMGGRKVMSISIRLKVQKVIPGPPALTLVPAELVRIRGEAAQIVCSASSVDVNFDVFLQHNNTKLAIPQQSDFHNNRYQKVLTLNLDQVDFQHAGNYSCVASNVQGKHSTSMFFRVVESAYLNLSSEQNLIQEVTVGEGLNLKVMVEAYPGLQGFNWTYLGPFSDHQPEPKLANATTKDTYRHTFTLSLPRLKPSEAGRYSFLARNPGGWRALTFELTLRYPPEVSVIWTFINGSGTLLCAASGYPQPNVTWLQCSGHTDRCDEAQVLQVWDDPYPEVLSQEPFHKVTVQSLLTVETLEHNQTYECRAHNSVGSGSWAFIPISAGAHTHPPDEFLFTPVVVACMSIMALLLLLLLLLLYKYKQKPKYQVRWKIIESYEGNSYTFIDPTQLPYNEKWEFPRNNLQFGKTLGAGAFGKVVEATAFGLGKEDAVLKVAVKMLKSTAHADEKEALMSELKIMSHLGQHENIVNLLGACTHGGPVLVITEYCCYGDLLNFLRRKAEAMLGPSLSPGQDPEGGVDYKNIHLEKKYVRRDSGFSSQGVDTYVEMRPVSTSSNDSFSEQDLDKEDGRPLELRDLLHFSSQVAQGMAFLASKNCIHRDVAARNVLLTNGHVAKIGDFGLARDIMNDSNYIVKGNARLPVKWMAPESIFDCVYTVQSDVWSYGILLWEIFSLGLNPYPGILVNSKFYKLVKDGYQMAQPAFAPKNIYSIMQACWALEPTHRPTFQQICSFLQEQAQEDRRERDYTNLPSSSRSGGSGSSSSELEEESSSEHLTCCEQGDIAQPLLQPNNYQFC
test: Detection of CSF1R phosphorylation activity at cell level (p-CSF1R ELISA, M-CSF stimulated THP-1 cells)
Type: cell-based
assaySetup: THP-1 cells, M-CSF stimulation, p-CSF1R ELISA; read-out: IC50
parameter: IC50

The cases that follow already have their IC50 on record.
COc1ccc([C@@H]2COc3cc(Oc4ccc5nccc(=O)n5c4)cnc3O2)nc1; 64 nM
COc1ccc([C@H]2COc3cc(Oc4ccc5ncc(C)c(=O)n5c4)cnc3O2)cc1; 56 nM
COc1ccccc1CCOc1ncc(Oc2ccc3ncc(C)c(=O)n3c2)cc1OC; 381 nM
COc1cc(Oc2ccc3ncc(C)c(=O)n3c2)cnc1OCc1ccc(C2CC2)cc1; 8 nM
COc1cc(Oc2ccc3ncc(C)c(=O)n3c2)cnc1OCc1ccc(C2CC2)c(F)c1; 6 nM

Lookup: // map Cn1cc(-c2cc(Oc3cnc4c(c3)O[C@H](c3ccc(C5CC5)cc3)CO4)ccn2)cn1 (single isomer, unassigned) [Compound 50] to recorded IC50 (system: CSF1R phosphorylation in THP-1 cells (Homo sapiens (Human)))
Found: 197 nM

Lookup: Item COc1cc(Oc2ccc3ncc(C)c(=O)n3c2)cnc1OCc1ccc(Cl)cc1 with CSF1R phosphorylation in THP-1 cells (Homo sapiens (Human)) - IC50?
Found: 31 nM

Lookup: Missing value: IC50, CSF1R phosphorylation in THP-1 cells (Homo sapiens (Human)), entry COc1ccc([C@H]2COc3cc(Oc4ccc5nccc(=O)n5c4)cnc3O2)cn1 . Fill in?
Found: 138 nM

Lookup: Find the measured IC50: item O=c1ccnc2ccc(Oc3cnc4c(c3)OCC(c3ccc(C5CC5)cc3)O4)cn12 (racemic) [Compound 55] , target or system CSF1R phosphorylation in THP-1 cells (Homo sapiens (Human)).
Found: 7 nM

Lookup: Query for CSF1R phosphorylation in THP-1 cells (Homo sapiens (Human)): what IC50 does the record show for O=c1ccnc2ccc(Oc3cnc4c(c3)OCC(c3ccc(C5CC5)cc3)O4)cn12 (racemic) [Compound 56] ?
Found: 14 nM

====

target: Recombinant human CSF1R kinase (Homo sapiens (Human))
test: Measurement of CSF1R kinase activity at molecular level (Z-LYTE)
assaySetup: Z-LYTE Tyr 1 peptide
IC50 vs 0.01 µM: less than gives Yes; not less than gives No.

COc1ccc([C@H]2COc3cc(Oc4ccnc(-c5cnn(C)c5)c4)cnc3O2)cc1 [Compound 68]; Yes

Lookup: Please determine if Cc1cnc2ccc(Oc3ccc(OCc4ccc(F)c(Cl)c4)nc3)cn2c1=O [Compound 4] is below 0.01 µM in terms of IC50.
Found: No

Lookup: Lab note: confirm whether the reported IC50 for this molecule is below 0.01 µM, equality not counting. molecule: Cc1cnc2ccc(Oc3cnc4c(c3)OC[C@@H](c3ccc(C5CC5)cc3)O4)cn2c1=O [Compound 57]
Found: No

Lookup: Take the molecule COc1cc(Oc2ccc3ncc(C)c(=O)n3c2)cnc1OCc1ccc(C2CC2)cc1F [Compound 11] and say whether its IC50 is less than 0.01 µM.
Found: No

Lookup: Does this molecule meet the criterion IC50 < 0.01 µM? COc1cc(Oc2ccc3ncc(N)c(=O)n3c2)cnc1OCc1ccc(-n2cccn2)cc1 [Compound 24]
Found: Yes

Lookup: Record COc1cc(Oc2ccc3c(c2)C2=NCCN2C=N3)cnc1OCc1ccc(C2CC2)cc1 [Compound 17] : is its IC50 strictly below 0.01 µM?
Found: No

====

target: Recombinant human CSF1R kinase (Homo sapiens (Human), UniProt P07333)
Sequence (P07333 20-972): as above
test: Measurement of CSF1R kinase activity at molecular level (Z-LYTE)
assaySetup: Z-LYTE Tyr 1 peptide
parameter: pIC50
Please treat pIC50 as minus the base-10 logarithm of the molar concentration.

O=c1ccnc2ccc(Oc3cnc4c(c3)OC[C@@H](c3ccc(C5CC5)cn3)O4)cn12; 7.85
COc1cc(Oc2ccc3ncc(C4CC4)c(=O)n3c2)cnc1OCc1ccc(C)cc1; 7.68
COc1ccc([C@@H]2COc3cc(Oc4ccnc(-c5cnn(C)c5)c4)cnc3O2)nc1; 7.96

Could you now look at the following molecule, please?
Lookup: Give its pIC50 value. Item: COc1ccc([C@@H]2COc3cc(Oc4ccc5nccc(=O)n5c4)cnc3O2)nc1
Found: 7.59
